Recorded values, source ChEMBL document CHEMBL2424614.

Biological target: UniProt P11388
Sequence (P11388 whole entry): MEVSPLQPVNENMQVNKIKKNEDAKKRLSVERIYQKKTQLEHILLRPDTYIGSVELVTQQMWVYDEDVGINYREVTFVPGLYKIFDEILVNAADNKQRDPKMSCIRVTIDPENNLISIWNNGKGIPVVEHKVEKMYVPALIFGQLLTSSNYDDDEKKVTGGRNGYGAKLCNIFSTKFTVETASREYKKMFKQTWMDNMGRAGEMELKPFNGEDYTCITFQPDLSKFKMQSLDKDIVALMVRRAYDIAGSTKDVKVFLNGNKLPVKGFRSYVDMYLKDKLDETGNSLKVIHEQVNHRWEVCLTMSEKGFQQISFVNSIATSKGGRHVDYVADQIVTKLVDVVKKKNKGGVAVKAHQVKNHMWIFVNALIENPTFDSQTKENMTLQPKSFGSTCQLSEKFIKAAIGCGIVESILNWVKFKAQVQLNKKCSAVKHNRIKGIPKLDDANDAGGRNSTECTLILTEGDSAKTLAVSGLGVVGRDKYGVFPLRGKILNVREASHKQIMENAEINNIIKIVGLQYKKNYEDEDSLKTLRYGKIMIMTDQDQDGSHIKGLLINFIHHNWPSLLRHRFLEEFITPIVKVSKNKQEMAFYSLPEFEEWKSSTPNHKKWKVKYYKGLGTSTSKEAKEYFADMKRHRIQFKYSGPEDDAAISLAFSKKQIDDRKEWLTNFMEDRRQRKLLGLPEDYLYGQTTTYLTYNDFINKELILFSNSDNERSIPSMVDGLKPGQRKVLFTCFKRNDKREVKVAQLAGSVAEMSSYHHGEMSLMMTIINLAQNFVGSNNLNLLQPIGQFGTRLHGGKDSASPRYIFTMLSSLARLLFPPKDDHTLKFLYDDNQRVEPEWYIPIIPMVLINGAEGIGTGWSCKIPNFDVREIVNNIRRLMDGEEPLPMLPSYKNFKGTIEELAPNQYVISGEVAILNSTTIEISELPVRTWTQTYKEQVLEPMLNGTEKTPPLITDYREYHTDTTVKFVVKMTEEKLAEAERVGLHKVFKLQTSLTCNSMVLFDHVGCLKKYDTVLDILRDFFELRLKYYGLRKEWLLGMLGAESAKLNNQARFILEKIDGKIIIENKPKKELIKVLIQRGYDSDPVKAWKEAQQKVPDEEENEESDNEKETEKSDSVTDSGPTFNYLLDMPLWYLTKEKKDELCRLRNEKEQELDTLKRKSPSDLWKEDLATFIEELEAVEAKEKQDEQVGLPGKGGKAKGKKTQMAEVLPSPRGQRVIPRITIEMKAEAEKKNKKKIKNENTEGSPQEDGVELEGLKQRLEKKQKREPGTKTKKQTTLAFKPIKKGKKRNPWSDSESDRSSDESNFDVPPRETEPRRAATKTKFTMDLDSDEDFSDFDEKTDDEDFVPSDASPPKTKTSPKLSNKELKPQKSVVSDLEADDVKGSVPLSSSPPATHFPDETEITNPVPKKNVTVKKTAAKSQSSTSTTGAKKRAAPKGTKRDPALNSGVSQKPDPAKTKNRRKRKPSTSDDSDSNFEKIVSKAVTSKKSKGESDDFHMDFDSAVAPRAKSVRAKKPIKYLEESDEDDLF
Assay: Inhibition of recombinant human DNA topoisomerase 2-alpha assessed as supression of kDNA decatenation at 100 uM after 30 mins by agarose gel electrophoresis
Calls of active or inactive are those of the source. The rule behind the calls is not given here.
Metric name: inhibition

Completed entries (count: 7):
Structure string	Target of assay	inhibition
COc1ccc(-c2cc(OC)c(-c3ccc(OC)c(OC)c3)c(OC)c2)cc1	UniProt P11388	inactive
Oc1ccc(-c2cc(O)c(-c3ccc(O)c(O)c3)c(O)c2)cc1	UniProt P11388	Active
COc1ccc(-c2ccc(-c3ccc(O)cc3)cc2)cc1OC	UniProt P11388	inactive
Oc1ccc(-c2ccc(-c3ccc(O)c(O)c3)c(O)c2O)cc1	UniProt P11388	Active
Oc1ccc(-c2ccc(-c3ccc(O)c(O)c3)c(O)c2)cc1	UniProt P11388	Active
COc1ccc(-c2ccc(-c3ccc(O)cc3)c(OC)c2OC)cc1OC	UniProt P11388	inactive
COc1ccc(-c2ccc(-c3ccc(OC)c(OC)c3)c(OC)c2)cc1	UniProt P11388	inactive

Turning now to a further molecule:
inhibition of Oc1ccc(-c2ccc(-c3ccc(O)c(O)c3)cc2)cc1 on UniProt P11388? Active
